System: giant foxtail
Experiment: Test B pre-/postemergence herbicide test
Type: in vivo, Setaria faberi
Details: postemergence, 500 g ai/ha; visual rating, scale 0 (no effect) to 100 (complete control)
Label scheme for Foxtail, Giant plant response rating: lower than 30 is n, 30 and above is y.

Threshold query (Foxtail, Giant plant response rating >= 30) on Cc1nc(C(C)(C)C)sc1C(=O)Nc1cccc(C(=O)NCC(F)(F)F)c1 [Compound 201]
n

Record CCn1nc(C(C)(C)C)cc1C(=O)Nc1nccc(OC)n1 [Compound 165] ; criterion: Foxtail, Giant plant response rating no lower than 30. Met?
n

Dear colleague, could you confirm whether CCN(CC)C(=O)c1cccc(NC(=O)c2cn(C(C)(C)C)nc2C)c1 [Compound 184] has Foxtail, Giant plant response rating at or above 30?
y

Kindly determine if Foxtail, Giant plant response rating recorded for CCn1nc(C(C)(C)C)cc1C(=O)Nc1cccc(C#N)c1 [Compound 139] is above or exactly 30.
n

Confirm if Foxtail, Giant plant response rating reported for the compound CCNC(=O)c1cc(C)nc(NC(=O)c2cc(C(C)(C)C)nn2CC)c1 [Compound 149] is 30 or above.
n

Say whether CCn1nc(C(C)(C)C)cc1C(=O)Nc1cccc(S(C)(=O)=O)c1 [Compound 133] shows Foxtail, Giant plant response rating of 30 or more.
n

Reported Foxtail, Giant plant response rating reaches at least 30 for CCc1nn(C(C)(C)C)cc1C(=O)Nc1cc(C(=O)NC)ccc1F [Compound 194] ?
n

Could you verify whether the entry CC(=O)c1cccc(NC(=O)c2cn(C(C)C)nc2C)c1 [Compound 179] shows Foxtail, Giant plant response rating of no less than 30?
n

Could you verify whether the entry CCn1nc(C(C)(C)C)cc1C(=O)Nc1cccc(S(=O)(=O)C(F)(F)F)c1 [Compound 134] shows Foxtail, Giant plant response rating of no less than 30?
y

Evaluate CCc1nn(C(C)(C)C)cc1C(=O)Nc1ccc(F)c(C(=O)N(C)C)c1 [Compound 239] : Foxtail, Giant plant response rating at minimum 30?
n

Has CCc1nc(C(C)(C)C)sc1C(=O)Nc1cccc(C(=O)NCC2CC2)n1 [Compound 215] a recorded Foxtail, Giant plant response rating greater than or equal to 30?
n

Given C=CCN(C)C(=O)c1ccnc(NC(=O)c2cc(C(C)(C)C)nn2CC)c1 [Compound 159] , state whether its Foxtail, Giant plant response rating is at least 30.
y

Hi, just wondering whether CCN(C)C(=O)c1cccc(NC(=O)c2sc(C(C)(C)C)nc2C)c1 [Compound 227] shows Foxtail, Giant plant response rating of 30 or higher.
y

Would you say C=CCN(C)C(=O)c1cccc(NC(=O)c2cc(C(C)(C)C)nn2CC)n1 [Compound 163] shows Foxtail, Giant plant response rating at minimum 30?
y

----------
System: giant foxtail
Test: Test B pre-/postemergence herbicide test
Type: in vivo, Setaria faberi
Settings: preemergence, 125 g ai/ha; 0 to 100 scale, 0 is no effect, 100 is complete control
Reported metric: Plant response rating, Foxtail, Giant
Would you mind answering with just the numeric figure?

Plant response rating, Foxtail, Giant in this record for CCn1nc(C(C)(C)C)cc1C(=O)Nc1cc(C(=O)OC(C)C)c(OC)cc1F [Compound 77] : 0

Per the records, this molecule ( CCN(CC)C(=O)c1cccc(NC(=O)c2cc(C(C)(C)C)nn2CC)n1 [Compound 145] ) has Plant response rating, Foxtail, Giant equal to 80

Measured Plant response rating, Foxtail, Giant of CCn1nc(C(C)(C)C)cc1C(=O)Nc1cc(C(=O)OC)c(OC)cc1F [Compound 75] : 30

Reported Plant response rating, Foxtail, Giant ( CCn1nc(C(C)(C)C)cc1C(=O)Nc1cc(C#N)ccc1F [Compound 140] ) = 0

Record C=CCOC(=O)c1cccc(NC(=O)c2cc(C(C)(C)C)nn2CC)c1 [Compound 85] . Reported Plant response rating, Foxtail, Giant: 0

Plant response rating, Foxtail, Giant for C=Cn1nc(C(C)(C)C)cc1C(=O)Nc1cccc(C(=O)OCC)c1 [Compound 78] is 10

// CCn1nc(C(C)(C)C)cc1C(=O)Nc1cccc(C#N)c1 [Compound 139] : Plant response rating, Foxtail, Giant value = 70

Recorded result, C=CCN(C)C(=O)c1cccc(NC(=O)c2cc(C(C)(C)C)nn2CC)n1 [Compound 163] , Plant response rating, Foxtail, Giant: 20

// Plant response rating, Foxtail, Giant value for CCCCn1nc(C(C)(C)C)cc1C(=O)Nc1cccc(C(=O)N(CC)CC)c1 [Compound 40] : 0

The recorded Plant response rating, Foxtail, Giant for CC(=NO)c1cccc(NC(=O)c2cc(C(C)(C)C)nn2CC(F)(F)F)c1 [Compound 112] is 10

Sample CCn1nc(C(C)(C)C)cc1C(=O)Nc1cccc(C(=O)OC(C)C)c1C [Compound 92] ; Plant response rating, Foxtail, Giant observed: 0
